target: 53BP1 TTD (Homo sapiens); experiment: NMR titration; format: binding; conditions: 1H,15N HSQC, 298 K, 0.1–0.2 mM TTD; glycine mutants of p53KC370me2 peptide
Sequence (Q12888 1484-1603): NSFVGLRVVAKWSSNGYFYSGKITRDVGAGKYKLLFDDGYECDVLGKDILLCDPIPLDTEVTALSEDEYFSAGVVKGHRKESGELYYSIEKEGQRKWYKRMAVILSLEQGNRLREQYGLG
*1 amine or outer side, *2 acyl side, *3 side chain or, on linkers, in order; H or OH if unused. Where no end group is shown, it is not given here. [ ]: non-standard residue; d: D form. KCme2 = N-dimethylated aminoethylcysteine, CN(C)CCSC[C@H](N[*:1])C(=O)[*:2]
measure name: effect of glycine mutation on CSPs in 15N-labeled TTD

| substance | reported |
| --- | --- |
| p53L369GKC370me2: p53KC370me2 peptide with L369 substituted with glycine (GHMRAHSSHGCSKKGQST; not fully specified (residue 11)) | Alterations in CSPs |
| p53H368GKC370me2: p53KC370me2 peptide with H368 substituted with glycine (GHMRAHSSGLCSKKGQST; not fully specified (residue 11)) | Alterations in CSPs |
| p53H365GKC370me2: p53KC370me2 peptide with H365 substituted with glycine (GHMRAGSSHL[KCme2]SKKGQST) | Alterations in CSPs |
